Every entry's value here was drawn from paper PMC9969401.

Molecular target: recombinant full-length HSET (Homo sapiens, UniProt Q9BW19)
Construct: 5 nM full-length human N-terminal His-tag HSET; His-tag (N)
Sequence (Q9BW19 1-673): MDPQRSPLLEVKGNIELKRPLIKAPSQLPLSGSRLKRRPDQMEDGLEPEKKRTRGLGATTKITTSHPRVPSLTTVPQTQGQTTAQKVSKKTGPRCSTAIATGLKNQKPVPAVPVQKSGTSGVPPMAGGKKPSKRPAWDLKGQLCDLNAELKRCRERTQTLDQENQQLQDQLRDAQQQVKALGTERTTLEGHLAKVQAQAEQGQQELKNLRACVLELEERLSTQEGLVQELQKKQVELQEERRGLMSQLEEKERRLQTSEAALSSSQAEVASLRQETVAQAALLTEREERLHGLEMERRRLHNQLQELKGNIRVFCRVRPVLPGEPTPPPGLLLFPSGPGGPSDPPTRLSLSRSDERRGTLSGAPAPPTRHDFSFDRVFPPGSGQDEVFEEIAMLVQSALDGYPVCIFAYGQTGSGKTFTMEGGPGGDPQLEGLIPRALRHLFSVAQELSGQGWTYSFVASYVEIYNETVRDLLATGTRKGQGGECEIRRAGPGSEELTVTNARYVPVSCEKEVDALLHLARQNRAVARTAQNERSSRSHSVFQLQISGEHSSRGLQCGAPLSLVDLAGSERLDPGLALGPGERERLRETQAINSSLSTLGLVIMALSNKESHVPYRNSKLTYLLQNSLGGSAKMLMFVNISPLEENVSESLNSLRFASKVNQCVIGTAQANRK
Experiment: ADP-Glo HSET assay (3 μM ATP), microtubule-stimulated ATPase
Type: biochemical
Settings: LE = −1.4Log(IC50 [M])/number of non-hydrogen atoms (Table 2)
measurementType: LE

Examples with answers:
Prompt line: # LE lookup, item CCOC(=O)c1sc(NC(=O)CCN(C)C(=O)c2cccc(-c3noc(C)n3)c2)nc1C
Response line: 0.19

Prompt line: # LE lookup, item CCOC(=O)c1sc(NC(=O)CCNC(=O)c2cccc(-c3noc(C)n3)c2)cc1C
Response line: 0.32

Prompt line: # LE lookup, item CCOC(=O)c1sc(NC(=O)C[C@@H](C)NC(=O)c2cccc(-c3noc(C)n3)c2)nc1C
Response line: 0.29

Prompt line: # LE lookup, item CCOC(=O)c1sc(NC(=O)C[C@H](C)NC(=O)c2cccc(-c3noc(C)n3)c2)nc1C
Response line: 0.32

Prompt line: # LE lookup, item CCCOC(=O)c1cc(NC(=O)CCNC(=O)c2cccc(-c3noc(C)n3)c2)nn1C
Response line: 0.30

Prompt line: # LE lookup, item CCOC(=O)c1sc(C(=O)NCCNC(=O)c2cccc(-c3noc(C)n3)c2)nc1C
Response line: 0.29

(I) CCCOC(=O)c1sc(NC(=O)CCNC(=O)c2cccc(-c3noc(C)n3)c2)nc1C
(II) CCOC(=O)c1ccc(NC(=O)CCNC(=O)c2cccc(-c3noc(C)n3)c2)nc1C
Prompt line: Looking at I and II , which one comes out lower in LE terms? Please reply using the label of the selected record.
Response line: II
